SUBJECT_OF_TEST: mTLR7 (Mus musculus, UniProt P58681)
Construct: Splenocytes isolated from male C57/BL6 mice; from tissue; host or cells: splenocytes from the spleen of male C57BL/6 mice
Sequence (P58681 27-1050): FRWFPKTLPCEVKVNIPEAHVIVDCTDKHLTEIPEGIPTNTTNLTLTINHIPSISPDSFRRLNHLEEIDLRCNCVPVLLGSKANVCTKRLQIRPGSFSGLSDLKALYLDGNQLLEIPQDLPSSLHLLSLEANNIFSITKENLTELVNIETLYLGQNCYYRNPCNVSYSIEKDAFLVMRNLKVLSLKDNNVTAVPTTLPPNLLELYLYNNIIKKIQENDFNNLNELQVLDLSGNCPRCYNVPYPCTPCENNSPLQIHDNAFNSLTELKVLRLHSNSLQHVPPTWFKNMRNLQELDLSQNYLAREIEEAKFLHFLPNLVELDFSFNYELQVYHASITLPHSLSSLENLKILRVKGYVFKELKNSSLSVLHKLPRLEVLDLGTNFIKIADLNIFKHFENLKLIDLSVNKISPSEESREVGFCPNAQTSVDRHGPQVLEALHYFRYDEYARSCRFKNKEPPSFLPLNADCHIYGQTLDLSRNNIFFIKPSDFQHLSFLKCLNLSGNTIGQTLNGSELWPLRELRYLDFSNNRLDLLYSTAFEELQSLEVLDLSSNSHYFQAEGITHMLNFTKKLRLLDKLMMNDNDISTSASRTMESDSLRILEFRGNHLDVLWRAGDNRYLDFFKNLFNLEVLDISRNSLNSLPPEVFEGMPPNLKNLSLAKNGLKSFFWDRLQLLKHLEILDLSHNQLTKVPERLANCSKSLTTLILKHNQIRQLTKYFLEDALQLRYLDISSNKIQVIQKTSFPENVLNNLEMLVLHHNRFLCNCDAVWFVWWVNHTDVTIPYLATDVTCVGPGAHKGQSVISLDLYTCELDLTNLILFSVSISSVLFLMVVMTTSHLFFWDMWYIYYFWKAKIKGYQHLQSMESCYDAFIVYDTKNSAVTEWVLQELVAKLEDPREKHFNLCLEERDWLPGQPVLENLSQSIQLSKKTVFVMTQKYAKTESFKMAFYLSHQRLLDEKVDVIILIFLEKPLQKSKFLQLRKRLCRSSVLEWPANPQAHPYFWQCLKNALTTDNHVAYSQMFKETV
ASSAY_COMMENT: mTLR7 antagonism (IL-6 and TNF-α release assay) in mouse splenocytes, R0006/DOTAP stimulated
Format: cell-based
STATED_CONDITIONS: 1 μM; IL-6 release, mouse splenocytes; read-out: mTLR7 inhibitory activity (% at 1 μM), IL-6
REPORTED_PROPERTY: inhibition at 1 µM
Reply with a number, then the unit it belongs to.

Sample answers from the record:
Cc1nc(-c2ccc(N3CCN(C(C)C)CC3)cc2)c2cc(CCN3CCCC3)[nH]c2c1C [Example B10] : 100%
Cc1cc2[nH]c(CCCN3CCCCC3)cc2c(-c2ccc(N3CCN(C(C)C)CC3)cc2)n1 [Example C5] : 100%
COc1cc(-c2nc(C)cc3c2cc(CCN2CCOCC2)n3C)ccc1N1CCN(C(C)C)CC1 [Example B22] : 100%
CCN1CCN(c2ccc(-c3nc(C)c(C)c4[nH]c(CN5CCOCC5)cc34)cc2)CC1 [Example A38] : 100%
CN1CCN(c2ccc(-c3nccc4[nH]c(CCN5CCOCC5)cc34)cc2)CC1 [Example B2] : 100%
Cc1cc2[nH]c(CN3CCC4(CC3)CC(O)C4)cc2c(-c2ccc(N3CCN(C(C)C)CC3)cc2)n1 [Example A29] : 97%
Cc1cc2c(cc(CCN3CCOCC3)n2C)c(-c2ccc(N3CCN(C(C)C)CC3)c(C)c2)n1 [Example B16] : 100%

Entry CC(C)N1CCN(c2cccc(-c3nccc4[nH]c(CN5CCOCC5)cc34)c2)CC1 [Example A57] : inhibition at 1 µM on mTLR7 (Mus musculus, UniProt P58681) = 80%

Value source: patent US9643967B2
